Ref: ChEMBL document CHEMBL3885861

species: Rattus norvegicus; experiment: Open TG-GATES - Regimen: Single; assay type: toxicity, organism-based, Sprague-Dawley; design: regimen Single, gender Male, age 6 weeks; conditions: in vivo, po, 0 mg/kg, 24 h, tissue Kidney, route gavage, dose level Control
measuredEndpoint: KIDNEY_R (g)
Answers are plain numbers, in g.

- compound: "Nc1nc(N)c2nc(-c3ccccc3)c(N)nc2n1"
  scaleUnit: "g"
  KIDNEY_R: 1

Respectfully, I request KIDNEY_R for each entry included below.
1. C[C@]12CCC(=O)C=C1CC[C@@H]1[C@@H]2CC[C@@]2(C)[C@H]1CC[C@]2(C)O [METHYLTESTOSTERONE]
2. C#C[C@]1(O)CC[C@H]2[C@@H]3CCc4cc(O)ccc4[C@H]3CC[C@@]21C [ETHINYL ESTRADIOL]
3. Oc1ncnc2[nH]ncc12 [ALLOPURINOL]
4. C[C@](N)(Cc1ccc(O)c(O)c1)C(=O)O [METHYLDOPA]
5. O=C(N[C@H](CO)[C@H](O)c1ccc([N+](=O)[O-])cc1)C(Cl)Cl [CHLORAMPHENICOL]
6. CC(C)C(=O)Nc1ccc([N+](=O)[O-])c(C(F)(F)F)c1 [FLUTAMIDE]
7. CC(=O)Oc1cc(C(C)C)c(OCCN(C)C)cc1C [MOXISYLYTE]
8. CC(=N)S [THIOACETAMIDE]

A:
1. 0.9
2. 0.9
3. 1
4. 0.9
5. 1
6. 1
7. 1
8. 0.9

====

For each of the compounds below, state its TC.
species on record: Rattus norvegicus; assay: Open TG-GATES - Regimen: Daily Repeat; assay type: toxicity, organism-based, Sprague-Dawley; set-up: regimen Daily Repeat, gender Male, age 6 weeks; settings: in vivo, po, 0 mg/kg, […], tissue Plasma, route gavage, dose level Control, time 7 day

Example entries and their recorded answers appear below.
- compound: "CC(=N)S [THIOACETAMIDE]"
  TC: "75 mg/dL"
- compound: "CC(C)(S)[C@@H](N)C(=O)O"
  TC: "74.4 mg/dL"
- compound: "CCC(C)(C)C(=O)O[C@H]1C[C@@H](C)C=C2C=C[C@H](C)[C@H](CC[C@@H]3C[C@@H](O)CC(=O)O3)[C@H]21"
  TC: "78.6 mg/dL"
- compound: "Nc1nc(N)c2nc(-c3ccccc3)c(N)nc2n1"
  TC: "90.2 mg/dL"
- compound: "CC(C)C(=O)Nc1ccc([N+](=O)[O-])c(C(F)(F)F)c1 [FLUTAMIDE]"
  TC: "72.6 mg/dL"

Now for a further compound.
Lab book: TC of CCN1CCCC1CNC(=O)c1cc(S(N)(=O)=O)ccc1OC (stereo unspecified) [SULPIRIDE] noted as 76.8 mg/dL

====

For each of the molecules below, state its K.
species on record: Rattus norvegicus; test: Open TG-GATES - Regimen: Daily Repeat; type: toxicity, organism-based, Sprague-Dawley; parameters: regimen Daily Repeat, gender Male, age 6 weeks; details: in vivo, po, 300 mg/kg, 72 h, tissue Plasma, route gavage, dose level Middle, time 3 day
Give bare numbers, in meq/L.

Example entries and their recorded answers appear below.
- molecule: "O=C(O)c1cccnc1 [NIACIN]"
  measuredEndpoint: "K"
  resultNumber: 4.1
- molecule: "O=C(N[C@H](CO)[C@H](O)c1ccc([N+](=O)[O-])cc1)C(Cl)Cl [CHLORAMPHENICOL]"
  measuredEndpoint: "K"
  resultNumber: 4.2

Respectfully, I request K for each entry included below.
1. CCN1CCCC1CNC(=O)c1cc(S(N)(=O)=O)ccc1OC (centres undefined) [SULPIRIDE]
2. CC(C)(S)[C@@H](N)C(=O)O [PENICILLAMINE]

A:
4.4
4

====

organism: Rattus norvegicus; test: Open TG-GATES - Regimen: Single; format: toxicity, organism-based, Sprague-Dawley; design: regimen Single, gender Male, age 6 weeks; conditions: in vivo, po, 0 mg/kg, 24 h, tissue Blood, route gavage, dose level Control
measuredEndpoint: Lym (%)
Numbers only, in %.

Example entries and their recorded answers appear below.
- molecule: "CC(C)C(=O)Nc1ccc([N+](=O)[O-])c(C(F)(F)F)c1 [FLUTAMIDE]"
  scaleUnit: "%"
  Lym: 82.2
- molecule: "CCN1CCCC1CNC(=O)c1cc(S(N)(=O)=O)ccc1OC (stereo not given) [SULPIRIDE]"
  scaleUnit: "%"
  Lym: 76.4
- molecule: "Nc1nc(N)c2nc(-c3ccccc3)c(N)nc2n1"
  scaleUnit: "%"
  Lym: 76
- molecule: "CCc1oc2ccccc2c1C(=O)c1cc(I)c(O)c(I)c1"
  scaleUnit: "%"
  Lym: 75.8

Now for a further molecule.
Lab book: Lym of O=C(N[C@H](CO)[C@H](O)c1ccc([N+](=O)[O-])cc1)C(Cl)Cl noted as 80.6

====

species on record: Rattus norvegicus; experiment: Open TG-GATES - Regimen: Single; assay type: toxicity, organism-based, Sprague-Dawley; design: regimen Single, gender Male, age 6 weeks; settings: in vivo, po, 0 mg/kg, 24 h, tissue Plasma, route gavage, dose level Control
measuredEndpoint: PL (mg/dL)
One number for each entry, in mg/dL.

Example entries and their recorded answers appear below.
- compound: "CCSCC[C@H](N)C(=O)O"
  measuredEndpoint: "PL"
  resultNumber: 156.6
- compound: "CC(=N)S [THIOACETAMIDE]"
  measuredEndpoint: "PL"
  resultNumber: 152.8
- compound: "CCC(C)(C)C(=O)O[C@H]1C[C@@H](C)C=C2C=C[C@H](C)[C@H](CC[C@@H]3C[C@@H](O)CC(=O)O3)[C@H]21"
  measuredEndpoint: "PL"
  resultNumber: 144.8
- compound: "O=C(O)c1cccnc1"
  measuredEndpoint: "PL"
  resultNumber: 147.6
- compound: "Oc1ncnc2[nH]ncc12"
  measuredEndpoint: "PL"
  resultNumber: 153.4
- compound: "O=C(N[C@H](CO)[C@H](O)c1ccc([N+](=O)[O-])cc1)C(Cl)Cl"
  measuredEndpoint: "PL"
  resultNumber: 155.2
- compound: "CC(C)C(=O)Nc1ccc([N+](=O)[O-])c(C(F)(F)F)c1 [FLUTAMIDE]"
  measuredEndpoint: "PL"
  resultNumber: 135.2
- compound: "C[C@]12CCC(=O)C=C1CC[C@@H]1[C@@H]2CC[C@@]2(C)[C@H]1CC[C@]2(C)O"
  measuredEndpoint: "PL"
  resultNumber: 149.8

Respectfully, I request PL for each entry included below.
1. C#C[C@]1(O)CC[C@H]2[C@@H]3CCc4cc(O)ccc4[C@H]3CC[C@@]21C
2. Nc1nc(N)c2nc(-c3ccccc3)c(N)nc2n1
3. CCc1oc2ccccc2c1C(=O)c1cc(I)c(O)c(I)c1

A:
[136.2, 158.6, 149.8]

Respectfully, I request PL for each entry included below.
1. CN1C(=O)OC(C)(C)C1=O
2. CC(=O)Oc1cc(C(C)C)c(OCCN(C)C)cc1C
3. CCN1CCCC1CNC(=O)c1cc(S(N)(=O)=O)ccc1OC (stereo unspecified) [SULPIRIDE]
4. C[C@](N)(Cc1ccc(O)c(O)c1)C(=O)O
5. CC(C)(S)[C@@H](N)C(=O)O

A:
161
151.4
140
128.6
160.4

====

species on record: Rattus norvegicus; experiment: Open TG-GATES - Regimen: Daily Repeat; type: toxicity, organism-based, Sprague-Dawley; parameters: regimen Daily Repeat, gender Male, age 6 weeks; details: in vivo, po, 300 mg/kg, […], tissue Plasma, route gavage, dose level Middle, time 14 day
For each of the compounds below, state its K.

Respectfully, I request K for each entry included below.
1. CCN1CCCC1CNC(=O)c1cc(S(N)(=O)=O)ccc1OC (centres undefined) [SULPIRIDE]
2. O=C(N[C@H](CO)[C@H](O)c1ccc([N+](=O)[O-])cc1)C(Cl)Cl

A:
3.9 meq/L
4 meq/L

Respectfully, I request K for each entry included below.
1. O=C(O)c1cccnc1
2. CC(C)(S)[C@@H](N)C(=O)O

A:
3.9 meq/L
3.9 meq/L

====

species on record: Rattus norvegicus; assay: Open TG-GATES - Regimen: Daily Repeat; assay type: toxicity, organism-based, Sprague-Dawley; set-up: regimen Daily Repeat, gender Male, age 6 weeks; conditions: in vivo, po, 300 mg/kg, […], tissue Plasma, route gavage, dose level Middle, time 14 day
measuredEndpoint: TG (mg/dL)
Answers are plain numbers, in mg/dL.

- compound: "CC(C)(S)[C@@H](N)C(=O)O [PENICILLAMINE]"
  resultNumber: 119.2
- compound: "O=C(N[C@H](CO)[C@H](O)c1ccc([N+](=O)[O-])cc1)C(Cl)Cl [CHLORAMPHENICOL]"
  resultNumber: 93.6
- compound: "CCN1CCCC1CNC(=O)c1cc(S(N)(=O)=O)ccc1OC (centres undefined) [SULPIRIDE]"
  resultNumber: 109

Now for a further compound.
Lab book: TG of O=C(O)c1cccnc1 [NIACIN] noted as 156
